# Tested on: PPARg:RXRa 30nM:10nM, anti-RXR (NR concentration 30 nM, RXRa partner concentration 10 nM)
# Assay Overview: PBM binding z-score (relative to random genomic background probes); higher = stronger binding; sequences stand for … in GC…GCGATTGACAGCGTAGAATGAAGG
# label = Satisfied if PBM binding z-score >= 2 else Not satisfied

# check: PBM binding z-score of CAAACTAGGTCAAGGTCAAAGACGGTTTGTGCCA is greater than or equal to 2
Satisfied

Moving on to another sequence below.
Evaluate GATACAGGGTCAGGTAGAGGCCAGAGTATGGAAA : PBM binding z-score at minimum 2?
Not satisfied

----------
# System: RARa homodimer (NR concentration 270 nM)
# Assay Overview: PBM binding z-score (relative to random genomic background probes); higher = stronger binding; sequences stand for … in GC…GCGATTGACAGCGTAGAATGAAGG
// reported PBM binding z-score for each item listed
The answer should be written as a number, with no unit following it.

Some sequences with recorded PBM binding z-score:
# get_value(readout='PBM binding z-score', item= CGGCCAAGGTCAAGGTCAGTGAAAGAGACTCGAA )
1.18

Which PBM binding z-score value belongs to TCCTGTAGATCAAAGGTTAAGAAAGCCGAAGCCT ?
-0.272

# get_value(readout='PBM binding z-score', item= CAGCCAAGGTCAGGGCCAGTATAGGAGGAACGTT )
0.299

Given ATCGAAAGGTCCAGGTGAGTATAGAGAAAGGGAA , state its recorded PBM binding z-score.
0.409

// query PBM binding z-score value for entry TCTAGTTGGTCAAAGGTCACACGCTCGAAATGCG
3.91

Next:
Value lookup for PBM binding z-score; key = CCTACTGGGCCAAAAAGATCATTGATGCCGATAA
0.184

Quick check: PBM binding z-score of CCAGTCAGGTGAAAGGTAACTCAGTCTGGTACGC ?
0.202

Which value of PBM binding z-score has been reported for AGAACGAGTGCACGCTGAGTTGATAGCAGAGTAG in the records?
-0.662

Which PBM binding z-score value is on record for GCTTGTAGATCCAGGTTAAGAAAGACTAAGCTAA ?
0.241

Look up PBM binding z-score for this sequence: CATACAGGGTCAGATAGGCCAGAGTAGGGACGGC
0.209

Quick check: PBM binding z-score of AGAATGAGGTTGTACGTAGATCAGGGAAGAAAGT ?
0.476

Record request: PBM binding z-score value, item ATATGTAGGTTACATCCGGTTCATTCAGGCTATG
0.415

----------
# System: RARa homodimer (NR concentration 270 nM)
# Assay Overview: PBM binding z-score (relative to random genomic background probes); higher = stronger binding; sequences stand for … in GC…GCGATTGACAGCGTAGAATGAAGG
Answer NO if PBM binding z-score is under -0.07, and YES if it is -0.07 or more.

Some solved cases for reference:
Dear colleague, could you confirm whether CGAACTAGATCATTGACAGGACAGTGAATAGTAA has PBM binding z-score at or above -0.07?
YES

For this sequence, is measured PBM binding z-score -0.07 or higher? CGAACTAGGTTAGAACAGGACAGTGAAGGATGAT
NO

Quick check, PBM binding z-score >= -0.07? TCTTGTAGAGCAATAGAGGTTAAGAAAGTGCGCT
NO

***
Is PBM binding z-score for GCAGACAGGTGTAACGCAGGTAACTCAGGGTGGC at or above -0.07?
NO

Threshold query (PBM binding z-score >= -0.07) on ATATGTAGGTTAAGGGTTATTCAGGTTGGTTCGC
YES

Check this sequence for PBM binding z-score at or above -0.07: CCGACTGGGCCAAAAAGGTCATTGATGCCGATAA
YES

Identify whether the reported PBM binding z-score of the following sequence is -0.07 or greater: TCGAGTCGGTTAGTCGGGGCATTCAGCCAACATA
NO

Answer whether PBM binding z-score of CGTCCATGGTCAATGCTAGGTCAGTGAAAGCATT is greater than or equal to -0.07.
NO

----------
# Test system: THRa:RXRa (NR concentration 90 nM, RXRa partner concentration 90 nM)
# Assay Overview: PBM binding z-score (relative to random genomic background probes); higher = stronger binding; sequences stand for … in GC…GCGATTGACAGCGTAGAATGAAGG
Metric: PBM binding z-score
Just the number, please.

Below: 5 sequences and their reported PBM binding z-score.
# value lookup — system THRa:RXRa (NR concentration 90 nM, RXRa partner concentration 90 nM), readout PBM binding z-score, item TCAGACAGGTGAAGCTAACTCAGGTACGCAGTCG
0.525

Please provide the recorded PBM binding z-score for ATCTCTAGGTAAAAGTTCAGAGAATCCCGAGGAT , tested on THRa:RXRa (NR concentration 90 nM, RXRa partner concentration 90 nM).
1.24

API: value(readout= PBM binding z-score, system= THRa:RXRa (NR concentration 90 nM, RXRa partner concentration 90 nM), query= TCTAGTTGGTCACGCAGGTCACACACGACGGGTA )
2.92

Query the reported PBM binding z-score for THRa:RXRa (NR concentration 90 nM, RXRa partner concentration 90 nM); item: CAAACTAGGTCAATGTCAAAGTCGGTTTGTGCCA
2.56

# get_value(readout= PBM binding z-score, system= THRa:RXRa (NR concentration 90 nM, RXRa partner concentration 90 nM)) for CAAACTAGGTCAAGAGGTCAAAGTACGCTTCCCG
4.23

Others:
Report PBM binding z-score for TTACCAAGGTGAGCTGAGGTCGTTGACCCAACTC tested on THRa:RXRa (NR concentration 90 nM, RXRa partner concentration 90 nM).
4.79

For THRa:RXRa (NR concentration 90 nM, RXRa partner concentration 90 nM), provide PBM binding z-score of TCTGCTAGGTCAACGATGGTCAGCTACTCTGCTA please.
3.04

----------
# System: LXRb:RXRa (NR concentration 270 nM, RXRa partner concentration 90 nM)
# Assay Overview: PBM binding z-score (relative to random genomic background probes); higher = stronger binding; sequences stand for … in GC…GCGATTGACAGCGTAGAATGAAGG
Metric: PBM binding z-score
// response body must contain only the number

Illustrative cases are given below, each with its answer.
Write down the reported PBM binding z-score of ATCTCTAGGTAAAGTTCAGTGATAGATCGATAGA , test system: LXRb:RXRa (NR concentration 270 nM, RXRa partner concentration 90 nM).
1.14

Short answer please: PBM binding z-score, LXRb:RXRa (NR concentration 270 nM, RXRa partner concentration 90 nM), entry AGAACGAGGGCACGCTGAGTTGCTAGCAGAGTAG
-0.279

API: value(readout= PBM binding z-score, system= LXRb:RXRa (NR concentration 270 nM, RXRa partner concentration 90 nM), query= ATCTCTAGGTAAGACTCAGTTCAGTGACGAACGC )
0.467

Others:
Observed PBM binding z-score on LXRb:RXRa (NR concentration 270 nM, RXRa partner concentration 90 nM) for TCGAGTTGGTCACGGAGGTCACACACGACGGGTA , please.
3.05

// map CGTCCAAGGTCAAGGTCAGTCAAAGAGACTCGAA to recorded PBM binding z-score (system: LXRb:RXRa (NR concentration 270 nM, RXRa partner concentration 90 nM))
4.85

----------
# Test system: LXRa:RXRa (NR concentration 270 nM, RXRa partner concentration 90 nM)
# Assay Overview: PBM binding z-score (relative to random genomic background probes); higher = stronger binding; sequences stand for … in GC…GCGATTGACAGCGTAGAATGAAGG
Listed next: entries and their corresponding PBM binding z-score.
Please state the value as a number alone, without comment.

Param readout = PBM binding z-score; param system = LXRa:RXRa (NR concentration 270 nM, RXRa partner concentration 90 nM); param query = GCTATTAGTTGAAACGGCAACCGAATGATTCTCG ; response: value
-0.34

Item: ATCTCTAGGGAAAAGTTCAGTGAATCCCGAGGAT Test system: LXRa:RXRa (NR concentration 270 nM, RXRa partner concentration 90 nM) Read-out: PBM binding z-score Value: ?
0.401

----------
Reported values of PBM binding z-score for individual entries
# System: PXR:RXRa (NR concentration 270 nM, RXRa partner concentration 90 nM)
# Assay Overview: PBM binding z-score (relative to random genomic background probes); higher = stronger binding; sequences stand for … in GC…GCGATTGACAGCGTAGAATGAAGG

Worked examples, 5 sequences total:
Can you look up the measured PBM binding z-score of CAGCCTAGGTCAGGGCCAGTTTAGGAGGAACGTT for me?
1.03

Recorded PBM binding z-score of TCTGCTAGGTCAGTTGGTAAGCTAACGAGCTGCC , please.
-0.186

Can you share its PBM binding z-score? I mean this sequence: TCATATAGGTAAAAGGTGAAAGTGGGTGTGGTAA
2.31

Need PBM binding z-score of CGGACTGGGGCAAGGTTACCATAACGCACAGCCA , thanks.
0.516

Please look up its PBM binding z-score: GCTAGTTGGTCAGTAAAAGGTCACACAGCGGTCG
5.42

Next sequence, PBM binding z-score to be filled in.
Can you look up the measured PBM binding z-score of CGAACAAGGTCAGAACAGGACAGTGAAGGATGAT for me?
3.22
